- target_of_assay: T1, GST-tagged Abl SH3 domain fusion protein (human, UniProt P00519 61-121, limits assumed)
- T1 construct: domain: SH3 domain; also called GST-Abl SH3; Abl1 SH3 domain; not shown: GST tag
- experiment: peptide microarray, GST-Abl SH3 5 uM overlaid, peptide printed at 1 mg/ml, Cy3 fluorescence, triplicates
No end group written: not given here.
observable: Average fluorescence intensity (high printing concentration)
# answer = number (no unit)

Request: Dear colleague, please send me the reported Average fluorescence intensity (high printing concentration) for PPSLPPPPPP (not fully specified (N-terminus)) [CBLB_HUMAN 818-827 peptide PPSLPPPPPP] when you can.
Response: 35000

Request: Dear colleague, please send me the reported Average fluorescence intensity (high printing concentration) for PPAVPPPPVP (not fully specified (N-terminus)) [RIN1_HUMAN 259-268 peptide PPAVPPPPVP] when you can.
Response: 42600

Request: Dear colleague, please send me the reported Average fluorescence intensity (high printing concentration) for PPPPPVPPPP (not fully specified (N-terminus)) [EVL_HUMAN 185-194 peptide PPPPPVPPPP] when you can.
Response: 4680
